Recorded ELISA PD-L1 Fc (RSU), one value per entry.
Target: T1, recombinant biotinylated PD-L1 (rhPD-L1/Fc Chimera, R&D Systems 156-B7) (human, UniProt Q9NZQ7 19-238, biotinylated (sites not given))
T1 construct: Bought Fc chimera; also called human PD-L1
T1 sequence (Q9NZQ7 19-238, change not shown): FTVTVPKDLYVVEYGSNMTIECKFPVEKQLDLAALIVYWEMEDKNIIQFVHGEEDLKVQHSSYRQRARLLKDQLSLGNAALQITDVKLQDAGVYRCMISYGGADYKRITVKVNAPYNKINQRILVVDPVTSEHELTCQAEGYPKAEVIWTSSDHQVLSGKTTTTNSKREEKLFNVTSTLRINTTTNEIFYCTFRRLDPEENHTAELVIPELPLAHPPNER
Assay: ELISA, lysate on plate-bound antigen
Method: Streptavidin-coated Maxisorp plates (Nunc catalog 436110) were blocked for 1 h in Starting Block T20 (Pierce) and then coated with biotinylated PD-L1 (using same antigen as in panning) or negative controls (an unrelated Fc-fused recombinant protein and human serum albumin) for 1 h. Plates were rinsed with TBST and diluted lysate was applied to plates for 1 h. […]
Quick note: give the figure in RSU, leave out the unit.

Worked cases, answers included:
binder	ELISA PD-L1 Fc (RSU)
ISOP121AR5P1F9 (designed binder, not shown: small tags and cut ends, FN3 domain; E. coli lysate in the ELISA) LPAPKNLVVSRVTEDSARLSWGWSELIATHFDSFLIQYQESEKVGEAIVLTVPGSERSYDLTGLKPGTEYTVSIYGVYNRKVNFYSNPLSAIFTT	136000
ISOP121BR5P1C3 (designed binder, not shown: small tags and cut ends, FN3 domain; E. coli lysate in the ELISA) LPAPKNLVVSRVTEDSARLSWASARDYFDSFLIQYQESEKVGEAIVLTVPGSERSYDLTGLKPGTEYTVSIYGVLAIAQITHWFSNPLSAIFTT	177000
ISOP121BR5P1D6 (designed binder, not shown: small tags and cut ends, FN3 domain; E. coli lysate in the ELISA) LPAPKNLVVSRVTEDSARLSWKQGTSFHFDSFLIQYQESEKVGEAIVLTVPGSERSYDLTGLKPGTEYTVSIYGVQLLANDIISSNPLSAIFTT	2.44e+06

Now, please, on to the next binder.
Could you share which ELISA PD-L1 Fc (RSU) value was measured for ISOP121GR5P1F10 (designed binder, not shown: small tags and cut ends, FN3 domain; E. coli lysate in the ELISA) LPAPKNLVVSRVTEDSARLSWTAPDAAFDSFFIDYVERATVGEAIALNVPGSKRSYALTGLKPGTEYFVKIRGVKGGLKSKPLWAWFTT ?
577000
